condition-info: 353.15 K; 101.33 kPa; Liquid; Vibrating tube method
measurement-kind: mass density (kg/m3)

CCCCCCCC[P+](CCCCCCCC)(CCCCCCCC)CCCCCCCC.[Br-] [tetraoctylphosphonium bromide] : 923.7
CC(C)C[P+](C)(CC(C)C)CC(C)C.Cc1ccc(S(=O)(=O)[O-])cc1 [triisobutylmethylphosphonium p-toluenesulfonate] : 1040.2
CCCC[P+](CC)(CCCC)CCCC.CCOP(=O)([O-])OCC [tributylethylphosphonium diethylphosphate] : 974.3
CCCC[P+](C)(CCCC)CCCC.COS(=O)(=O)[O-] [tributylmethylphosphonium methyl sulfate] : 1034.4

###

condition-info: 353.15 K; 101.33 kPa; Liquid; Concentric cylinders viscometry
measurement-kind: viscosity (mPa·s)

CC(C)C[P+](C)(CC(C)C)CC(C)C.Cc1ccc(S(=O)(=O)[O-])cc1 [triisobutylmethylphosphonium p-toluenesulfonate] : 81.3
CCCC[P+](C)(CCCC)CCCC.COS(=O)(=O)[O-] [tributylmethylphosphonium methyl sulfate] : 70
CCCC[P+](CC)(CCCC)CCCC.CCOP(=O)([O-])OCC [tributylethylphosphonium diethylphosphate] : 21.6
CCCCCCCC[P+](CCCCCCCC)(CCCCCCCC)CCCCCCCC.[Br-] [tetraoctylphosphonium bromide] : 76.8
